The measured values listed here are drawn from paper PMC11152041.

tested on: HL-60 cells; assay: MTT cytotoxicity assay; type: cell-based, human; settings: Homo sapiens; HL-60, 24 h, MTT; read-out: IC50 ± SD
Measurement kind: IC50 (nM)
A number alone suffices; assume nM.

Reported IC50 of Oc1ccc(Cl)c2cccnc12 [ClHQ, 5-chloro-8-hydroxyquinoline, reference compound] : 1700

----------
tested on: HL-60 cells; assay: MTT cytotoxicity assay; assay type: cell-based, human; conditions: Homo sapiens, HL-60, 24 h, read-out: IC50 ± SD
Measurement kind: pIC50
Bear in mind: pIC50 is minus log10 of a mol/L concentration; give just that figure.

| Compound | Tgt | pIC50 |
| --- | --- | --- |
| Oc1cccc2cccnc12 [HQ, 8-hydroxyquinoline] | HL-60 cells | 5.66 |

Please turn your attention to the following entry.
Form field pIC50, entry Cc1ccc2cccc(O)c2n1 [MeHQ, 2-methyl-8-hydroxyquinoline, reference compound] : 4.57

----------
test system: MCF-7 cells; assay: MTT cytotoxicity assay; assay type: cell-based, human; conditions: Homo sapiens, MCF7, 24 h, read-out: IC50 ± SD
Measurement kind: IC50 (µM)
Write the answer as a number in µM, unit excluded.

Entry Oc1cccc2cccnc12 [HQ, 8-hydroxyquinoline] — recorded IC50 = 24

----------
Recorded IC50 values for a group of compounds are listed next.
test system: MCF-10A cells; assay: MTT cytotoxicity assay; conditions: read-out: IC50 ± SD; MCF-10A (non-cancerous), 24 h, MTT; * precipitation of the complex

Consider the worked cases shown below.
| Compound | Tgt | Result |
| --- | --- | --- |
| [C-]#[O+].[C-]#[O+].[C-]#[O+].[Re][O]c1cccc2cccnc12.c1ccc(-c2ccn[nH]2)cc1 [complex 4, [Re(CO)3(Q)HPhpz]·0.5CH3CN] | MCF-10A cells | 50 µM |
| Clc1ccc([O][Re])c2ncccc12.[C-]#[O+].[C-]#[O+].[C-]#[O+].c1ccc(-c2ccn[nH]2)cc1 [complex 12, [Re(CO)3(ClQ)HPhpz]] | MCF-10A cells | 34 µM |
| Cc1ncc[nH]1.[C-]#[O+].[C-]#[O+].[C-]#[O+].[Re][O]c1cccc2cccnc12 [complex 2, [Re(CO)3(Q)MeHim]] | MCF-10A cells | 31 µM |

Record summary for Cc1cc(C)[nH]n1.[C-]#[O+].[C-]#[O+].[C-]#[O+].[Re][O]c1cccc2cccnc12 [complex 3, [Re(CO)3(Q)Hdmpz]] : reported IC50 = > 100 µM

The recorded IC50 for entry N.N.[Cl][Pt][Cl] [cisplatin, reference compound] equals > 100 µM

Reported IC50 of Cc1ccc2cccc([O][Re])c2n1.[C-]#[O+].[C-]#[O+].[C-]#[O+].c1c[nH]cn1 [complex 5, [Re(CO)3(MeQ)Him]] : 50 µM

----------
Below, each of the compounds is paired with its reported IC50 value.
Tested on: SKOV-3 cells
Experiment: MTT cytotoxicity assay
Format: cell-based, human
Conditions: SKOV-3, 24 h, MTT; read-out: IC50 ± SD
Protocol: The cytotoxicities for studied compounds were evaluated against leukemia cells (HL-60), as well as ovarian (SKOV-3), prostate (PC-3), and breast (MCF-7) cancer cell lines. The potential selectivity of these compounds towards cancer cells was assessed by determination of their cytotoxicities towards breast non-cancerous cells (MCF-10A). For comparison, cisplatin was added to the cytotoxicity assays. Bacterial strains and cell lines were obtained from the American Type Culture Collection (ATCC).[59] […]

| Compound | Measurement kind | Result |
| --- | --- | --- |
| N.N.[Cl][Pt][Cl] [cisplatin, reference compound] | IC50 | > 100 µM |
| Cc1ccc2cccc([O][Re])c2n1.[C-]#[O+].[C-]#[O+].[C-]#[O+].c1c[nH]cn1 [complex 5, [Re(CO)3(MeQ)Him]] | IC50 | 31 µM |
| [C-]#[O+].[C-]#[O+].[C-]#[O+].[Re][O]c1cccc2cccnc12.c1ccc(-c2ccn[nH]2)cc1 [complex 4, [Re(CO)3(Q)HPhpz]·0.5CH3CN] | IC50 | > 100 µM |
| Clc1ccc([O][Re])c2ncccc12.[C-]#[O+].[C-]#[O+].[C-]#[O+].c1c[nH]cn1 [complex 9, [Re(CO)3(ClQ)Him]] | IC50 | 32 µM |
| Cc1ncc[nH]1.[C-]#[O+].[C-]#[O+].[C-]#[O+].[Re][O]c1cccc2cccnc12 [complex 2, [Re(CO)3(Q)MeHim]] | IC50 | > 100 µM |
| Cc1ccc2cccc([O][Re])c2n1.Cc1ncc[nH]1.[C-]#[O+].[C-]#[O+].[C-]#[O+] [complex 6, [Re(CO)3(MeQ)MeHim]] | IC50 | 32 µM |

Given item Cc1cc(C)[nH]n1.[C-]#[O+].[C-]#[O+].[C-]#[O+].[Re][O]c1cccc2cccnc12 [complex 3, [Re(CO)3(Q)Hdmpz]] , the value recorded as its IC50 is 32 µM

Reported IC50 for Cc1ccc2cccc([O][Re])c2n1.[C-]#[O+].[C-]#[O+].[C-]#[O+].c1ccc(-c2ccn[nH]2)cc1 [complex 8, [Re(CO)3(MeQ)HPhpz]] was > 100 µM

Record Clc1ccc([O][Re])c2ncccc12.[C-]#[O+].[C-]#[O+].[C-]#[O+].c1ccc(-c2ccn[nH]2)cc1 [complex 12, [Re(CO)3(ClQ)HPhpz]] , field IC50: > 100 µM

Entry [C-]#[O+].[C-]#[O+].[C-]#[O+].[Re][O]c1cccc2cccnc12.c1c[nH]cn1 [complex 1, [Re(CO)3(Q)Him]] ; IC50 = 36 µM

Kindly note the recorded IC50 for Cc1cc(C)[nH]n1.Cc1ccc2cccc([O][Re])c2n1.[C-]#[O+].[C-]#[O+].[C-]#[O+] [complex 7, [Re(CO)3(MeQ)Hdmpz]] , which is 29 µM

Per the record, Cc1cc(C)[nH]n1.Clc1ccc([O][Re])c2ncccc12.[C-]#[O+].[C-]#[O+].[C-]#[O+] [complex 11, [Re(CO)3(ClQ)Hdmpz]] has IC50 of 40 µM
